Overview of reported t1/2 across a group of binders:
target: Macaca fascicularis IL-36R extracellular domain expressed with a C-terminal myc-myc-hexahistidine tag (mfIL-36R-MMH) (Macaca fascicularis); assay: SPR Biacore 4000, mAb captured on anti-hFc, 37C
Field: value (include unit after the number)

Known results for binders:
>>> endpoint_result("H4H14728P (antibody, human IgG4 S228P, kappa, V domains shown) VH: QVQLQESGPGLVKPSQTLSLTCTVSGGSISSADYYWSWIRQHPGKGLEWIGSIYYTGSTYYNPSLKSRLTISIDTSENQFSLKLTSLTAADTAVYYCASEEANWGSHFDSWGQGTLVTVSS VL: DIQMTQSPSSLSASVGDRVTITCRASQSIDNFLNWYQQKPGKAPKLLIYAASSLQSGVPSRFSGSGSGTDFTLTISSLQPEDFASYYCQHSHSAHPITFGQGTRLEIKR")
"9 min"
>>> endpoint_result("H4H14709P (antibody, human IgG4 S228P, kappa, V domains shown) VH: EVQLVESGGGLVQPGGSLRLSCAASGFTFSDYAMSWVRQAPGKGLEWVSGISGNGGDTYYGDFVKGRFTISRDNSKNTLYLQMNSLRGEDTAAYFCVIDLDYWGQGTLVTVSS VL: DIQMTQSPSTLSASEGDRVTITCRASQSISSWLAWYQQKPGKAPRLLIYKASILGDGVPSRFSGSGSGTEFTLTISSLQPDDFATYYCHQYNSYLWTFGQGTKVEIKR")
"13 min"
>>> endpoint_result("H4H14708P2 (antibody, human IgG4 S228P, kappa, V domains shown) VH: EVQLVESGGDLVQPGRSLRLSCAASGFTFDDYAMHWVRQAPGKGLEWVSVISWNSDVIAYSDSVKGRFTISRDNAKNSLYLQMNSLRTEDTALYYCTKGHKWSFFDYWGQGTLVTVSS VL: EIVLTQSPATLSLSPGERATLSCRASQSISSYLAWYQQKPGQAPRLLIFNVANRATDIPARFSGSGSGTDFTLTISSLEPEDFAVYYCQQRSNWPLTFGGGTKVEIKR")
"6 min"

q: Endpoint output: t1/2 of H4H14700P2 (antibody, human IgG4 S228P, kappa, V domains shown) VH: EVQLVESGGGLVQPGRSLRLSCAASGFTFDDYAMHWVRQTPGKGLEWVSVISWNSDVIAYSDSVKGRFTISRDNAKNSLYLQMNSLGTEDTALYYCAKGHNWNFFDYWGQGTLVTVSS VL: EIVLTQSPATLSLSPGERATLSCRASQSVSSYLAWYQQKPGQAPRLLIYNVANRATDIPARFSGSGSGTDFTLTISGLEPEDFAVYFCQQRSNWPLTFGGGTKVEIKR . Value?
a: 6 min

q: Using the record for H4H14731P (antibody, human IgG4 S228P, kappa, V domains shown) VH: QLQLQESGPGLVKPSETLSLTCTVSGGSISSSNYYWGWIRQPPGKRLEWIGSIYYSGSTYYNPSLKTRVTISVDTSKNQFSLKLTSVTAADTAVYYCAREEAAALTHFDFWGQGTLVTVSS VL: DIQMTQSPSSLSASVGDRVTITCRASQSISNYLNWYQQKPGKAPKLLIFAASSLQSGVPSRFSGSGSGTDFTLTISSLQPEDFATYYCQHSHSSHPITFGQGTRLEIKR , report its t1/2.
a: 4 min
